All figures here come from ChEMBL document CHEMBL1759979.

system: PC-3; test: Antiproliferative activity against human PC3 cells after 72 hrs by MTS assay; format: functional; set-up: concentration or dose not given beside the values
Please note: Activity exactly at 10% is -1. Only values below 10% get 1.

# structure_as_smiles, class_label
records = [
    ("COc1cc2/c(=N/c3ccc(Br)cc3F)nc[nH]c2cc1OCC1CCN(C)CC1", -1),
    ("COc1cc2ncnc(Oc3ccc(NC(=O)Nc4cccc5ccccc45)cc3)c2cc1OC", 1),
    ("COc1cc2ncnc(N(C)c3ccc(Br)cc3F)c2cc1OC", -1),
    ("COc1cc2ncnc(Oc3cccc(Br)c3)c2cc1OC", -1),
    ("COc1ccc(NC(=O)Nc2ccc(Oc3ncnc4cc(OC)c(OC)cc34)cc2)cc1", -1),
    ("COc1cc2ncnc(Oc3ccc(F)c(Cl)c3)c2cc1OC", 1),
    ("COc1cc2ncnc(Oc3ccc(NC(=O)Nc4ccccc4)cc3)c2cc1OC", -1),
    ("CCOC(=O)Nc1ccc(Nc2ncnc3cc(OC)c(OC)cc23)cc1", -1),
    ("COc1ccc(NC(=O)Nc2cccc(N(C)c3ncnc4cc(OC)c(OC)cc34)c2)cc1", 1),
    ("COc1cc2ncnc(Nc3ccc(Br)cc3F)c2cc1OC", 1),
    ("COc1cc2ncnc(Nc3ccc(NC(C)=O)cc3)c2cc1OC", 1),
    ("COc1cc2ncnc(N(C)c3ccc(F)c(Cl)c3)c2cc1OC", -1),
    ("COc1cc2ncnc(Oc3ccc(NC(C)=O)cc3)c2cc1OC", 1),
    ("COc1cc2ncnc(Oc3ccc(NC(=O)Nc4ccc(C)cc4)cc3)c2cc1OC", -1),
    ("COC(=O)Nc1ccc(Nc2ncnc3cc(OC)c(OC)cc23)cc1", 1),
    ("COc1cc2ncnc(N(C)c3cccc(NC(=O)Nc4ccccc4)c3)c2cc1OC", 1),
    ("COc1cc2ncnc(Nc3cccc(Br)c3)c2cc1OC", -1),
]

* * *

test system: PC-3; assay: Antiproliferative activity against human PC3 cells at 10 uM after 72 hrs by MTS assay; assay type: functional, cell-based; details: PC-3, 72 h
pIC50: −log10 of the molar value.
experimental_endpoint: pIC50

# structure_as_smiles, observed_value
measured = [
    ("COc1cc2ncnc(Nc3ccc(F)c(Cl)c3)c2cc1OC", 5.19),
    ("COc1cc2ncnc(Nc3ccc(NC(=O)Nc4ccc(F)c(Cl)c4)cc3)c2cc1OC", 5.03),
]
